The entries below come with measured IC50 values attached.
- targetEntity: T1, glucagon receptor (UniProt P47871 26-477, limits assumed)
- T1 construct: whole, on cells; also called GR; Glucagon
- T1 sequence (P47871 26-477 limits assumed): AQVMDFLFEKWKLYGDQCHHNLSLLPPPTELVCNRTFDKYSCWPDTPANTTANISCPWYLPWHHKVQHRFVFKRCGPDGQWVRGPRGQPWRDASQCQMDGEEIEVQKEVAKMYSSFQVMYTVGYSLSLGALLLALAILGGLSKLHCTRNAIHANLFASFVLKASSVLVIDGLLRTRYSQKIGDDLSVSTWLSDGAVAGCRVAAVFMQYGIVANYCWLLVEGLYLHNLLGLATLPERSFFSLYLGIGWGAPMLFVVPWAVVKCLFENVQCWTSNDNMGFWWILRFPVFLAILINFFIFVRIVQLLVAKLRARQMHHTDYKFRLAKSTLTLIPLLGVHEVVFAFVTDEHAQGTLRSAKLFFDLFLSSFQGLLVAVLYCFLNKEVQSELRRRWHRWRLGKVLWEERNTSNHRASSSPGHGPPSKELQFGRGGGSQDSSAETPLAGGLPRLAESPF
- procedureSummary: column IC50(nM) beside the cAMP columns of Table H; taken as receptor binding
Square brackets hold non-standard residues; d marks the D form. Ends that are not written are not given here. Abu(4-SO3H) = N[C@@H](CCS(=O)(=O)O)C(=O)O
Hey, just the number and the unit after it is fine.

binder	IC50
FTS[Abu(4-SO3H)]YSKYLDSRRAQDFVQWLMNT-NH2 (also called [hCys(SO3)9]Glucagon(aa6-29)-NH2) [[hCys^9(SO3H)]Glucagon(aa6-29)-NH2]	59.1 nM

Look up and state reported IC50 for SQGTFTS[Abu(4-SO3H)]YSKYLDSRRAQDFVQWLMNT-NH2 [[hCys^9(SO3H)]Glucagon(aa2-29)-NH2]
13.2 nM
